Hey, just so you know, these numbers are from patent US4568490A.

# System: ICR strain mice
# Assay Comment: Pulmonary toxicity (pulmonary fibrosis) in mice, intraperitoneal injection
# Type: in vivo
# Measurement Context: 5 mg/kg i.p. once a day for 10 days; autopsy after 5 weeks
Reported values of Incidence of pulmonary fibrosis, % for individual entries
I only need the number, in %, no unit after it.

Known Incidence of pulmonary fibrosis, % results, listed for orientation:
I would be grateful if you could share the reported Incidence of pulmonary fibrosis, % for CC[N+](CC)(CCCNCCc1ccc(Cl)cc1)CCCNC(=O)c1csc(-c2csc(CCNC(=O)C(NC(=O)C(C)C(O)C(C)NC(=O)C(NC(=O)c3nc(C(CC(N)=O)NCC(N)C(N)=O)nc(N)c3C)C(OC3OC(CO)C(O)C(O)C3OC3OC(CO)C(O)C(OC(N)=O)C3O)c3cnc[nH]3)C(C)O)n2)n1 (stereo not drawn) [compound 46] .
0

I would be grateful if you could share the reported Incidence of pulmonary fibrosis, % for Cc1c(N)nc(C(CC(N)=O)NCC(N)C(N)=O)nc1C(=O)NC(C(=O)NC(C)C(O)C(C)C(=O)NC(C(=O)NCCc1nc(-c2nc(C(=O)NCCCN(C)CCCN)cs2)cs1)C(C)O)C(OC1OC(CO)C(O)C(O)C1OC1OC(CO)C(O)C(OC(N)=O)C1O)c1cnc[nH]1 (stereo not drawn) [APMP, reference compound] .
100

Continuing:
I would be grateful if you could share the reported Incidence of pulmonary fibrosis, % for CCCC[N+](CCCC)(CCCNC(=O)c1csc(-c2csc(CCNC(=O)C(NC(=O)C(C)C(O)C(C)NC(=O)C(NC(=O)c3nc(C(CC(N)=O)NCC(N)C(N)=O)nc(N)c3C)C(OC3OC(CO)C(O)C(O)C3OC3OC(CO)C(O)C(OC(N)=O)C3O)c3cnc[nH]3)C(C)O)n2)n1)CCCN(Cc1ccccc1)Cc1ccccc1 (stereo not drawn) [compound 38] .
0

----------
# System: ICR strain mice
# Assay Comment: Pulmonary toxicity (pulmonary fibrosis) in mice, intraperitoneal injection
# Type: in vivo
# Measurement Context: 5 mg/kg i.p. once a day for 10 days; reference of the ratio not stated
Reported values of Grade of pulmonary fibrosis, Ratio for individual entries
# print the numeric value only

Known Grade of pulmonary fibrosis, Ratio results, listed for orientation:
Test system ICR strain mice; read-out Grade of pulmonary fibrosis, Ratio; what value for Cc1c(N)nc(C(CC(N)=O)NCC(N)C(N)=O)nc1C(=O)NC(C(=O)NC(C)C(O)C(C)C(=O)NC(C(=O)NCCc1nc(-c2nc(C(=O)NCCCN(C)CCCN(Cc3ccc(OCc4ccc(Cl)cc4)c(OCc4ccc(Cl)cc4)c3)Cc3ccc(OCc4ccc(Cl)cc4)c(OCc4ccc(Cl)cc4)c3)cs2)cs1)C(C)O)C(OC1OC(CO)C(O)C(O)C1OC1OC(CO)C(O)C(OC(N)=O)C1O)c1cnc[nH]1 (stereo not drawn) ?
0.00

Test system ICR strain mice; read-out Grade of pulmonary fibrosis, Ratio; what value for CC[N+](CC)(CCCNCCc1ccc(Cl)cc1)CCCNC(=O)c1csc(-c2csc(CCNC(=O)C(NC(=O)C(C)C(O)C(C)NC(=O)C(NC(=O)c3nc(C(CC(N)=O)NCC(N)C(N)=O)nc(N)c3C)C(OC3OC(CO)C(O)C(O)C3OC3OC(CO)C(O)C(OC(N)=O)C3O)c3cnc[nH]3)C(C)O)n2)n1 (stereo not drawn) ?
0.00

Test system ICR strain mice; read-out Grade of pulmonary fibrosis, Ratio; what value for Cc1c(N)nc(C(CC(N)=O)NCC(N)C(N)=O)nc1C(=O)NC(C(=O)NC(C)C(O)C(C)C(=O)NC(C(=O)NCCc1nc(-c2nc(C(=O)NCCCN(C)CCCN(Cc3ccc(OCc4ccc(OCc5ccccc5)cc4)cc3)Cc3ccc(OCc4ccc(OCc5ccccc5)cc4)cc3)cs2)cs1)C(C)O)C(OC1OC(CO)C(O)C(O)C1OC1OC(CO)C(O)C(OC(N)=O)C1O)c1cnc[nH]1 (stereo not drawn) ?
0.00

Continuing:
Test system ICR strain mice; read-out Grade of pulmonary fibrosis, Ratio; what value for Cc1c(N)nc(C(CC(N)=O)NCC(N)C(N)=O)nc1C(=O)NC(C(=O)NC(C)C(O)C(C)C(=O)NC(C(=O)NCCc1nc(-c2nc(C(=O)NCCCN(C)CCCNCc3ccc(Cl)c(Cl)c3)cs2)cs1)C(C)O)C(OC1OC(CO)C(O)C(O)C1OC1OC(CO)C(O)C(OC(N)=O)C1O)c1cnc[nH]1 (stereo not drawn) ?
0.05

Test system ICR strain mice; read-out Grade of pulmonary fibrosis, Ratio; what value for Cc1c(N)nc(C(CC(N)=O)NCC(N)C(N)=O)nc1C(=O)NC(C(=O)NC(C)C(O)C(C)C(=O)NC(C(=O)NCCc1nc(-c2nc(C(=O)NCCCN(C)CCCNCc3ccc(C#N)cc3)cs2)cs1)C(C)O)C(OC1OC(CO)C(O)C(O)C1OC1OC(CO)C(O)C(OC(N)=O)C1O)c1cnc[nH]1 (stereo not drawn) ?
0.00

Test system ICR strain mice; read-out Grade of pulmonary fibrosis, Ratio; what value for CCCC[N+](CCCC)(CCCNC(=O)c1csc(-c2csc(CCNC(=O)C(NC(=O)C(C)C(O)C(C)NC(=O)C(NC(=O)c3nc(C(CC(N)=O)NCC(N)C(N)=O)nc(N)c3C)C(OC3OC(CO)C(O)C(O)C3OC3OC(CO)C(O)C(OC(N)=O)C3O)c3cnc[nH]3)C(C)O)n2)n1)CCCN(Cc1ccccc1)Cc1ccccc1 (stereo not drawn) ?
0.00

----------
# Tested on: ICR mice
# Assay Comment: Pulmonary toxicity (pulmonary fibrosis) in mice, intratracheal instillation
# Format: in vivo
# Measurement Context: 16 μg/50 μl/mouse intratracheally; sacrificed 4 weeks after instillation
Classification scheme (Grade of pulmonary fibrosis, %): class A: < 8%; class B: ≥ 8% and < 20%; class C: ≥ 20%

Category of Cc1c(N)nc(C(CC(N)=O)NCC(N)C(N)=O)nc1C(=O)NC(C(=O)NC(C)C(O)C(C)C(=O)NC(C(=O)NCCc1nc(-c2nc(C(=O)NCCC[N+](C)(CCCN(Cc3ccccc3)Cc3ccccc3)Cc3ccccc3)cs2)cs1)C(C)O)C(OC1OC(CO)C(O)C(O)C1OC1OC(CO)C(O)C(OC(N)=O)C1O)c1cnc[nH]1 (stereo not drawn) [compound 39] :
class B

Category of COc1ccc(CNCCCN(C)CCCNC(=O)c2csc(-c3csc(CCNC(=O)C(NC(=O)C(C)C(O)C(C)NC(=O)C(NC(=O)c4nc(C(CC(N)=O)NCC(N)C(N)=O)nc(N)c4C)C(OC4OC(CO)C(O)C(O)C4OC4OC(CO)C(O)C(OC(N)=O)C4O)c4cnc[nH]4)C(C)O)n3)n2)c(OC)c1 (stereo not drawn) [compound 13] :
class B

Category of Cc1c(N)nc(C(CC(N)=O)NCC(N)C(N)=O)nc1C(=O)NC(C(=O)NC(C)C(O)C(C)C(=O)NC(C(=O)NCCc1nc(-c2nc(C(=O)NCCCN(C)CCCNCc3ccc([N+](=O)[O-])cc3)cs2)cs1)C(C)O)C(OC1OC(CO)C(O)C(O)C1OC1OC(CO)C(O)C(OC(N)=O)C1O)c1cnc[nH]1 (stereo not drawn) [MNBZ, reference compound] :
class C

Continuing:
Category of Cc1c(N)nc(C(CC(N)=O)NCC(N)C(N)=O)nc1C(=O)NC(C(=O)NC(C)C(O)C(C)C(=O)NC(C(=O)NCCc1nc(-c2nc(C(=O)NCCCN(C)CCCNCc3ccc(Cl)c(Cl)c3)cs2)cs1)C(C)O)C(OC1OC(CO)C(O)C(O)C1OC1OC(CO)C(O)C(OC(N)=O)C1O)c1cnc[nH]1 (stereo not drawn) [compound 7] :
class B

Category of Cc1c(N)nc(C(CC(N)=O)NCC(N)C(N)=O)nc1C(=O)NC(C(=O)NC(C)C(O)C(C)C(=O)NC(C(=O)NCCc1nc(-c2nc(C(=O)NCCCNCCCNC(C)c3ccccc3)cs2)cs1)C(C)O)C(OC1OC(CO)C(O)C(O)C1OC1OC(CO)C(O)C(OC(N)=O)C1O)c1cnc[nH]1 (stereo not drawn) [PEPP, reference compound] :
class C

----------
Reported values of Grade: total score of pulmonary fibrosis/total number of test animal for individual entries
# Test system: ICR strain mice
# Assay Comment: Pulmonary toxicity (pulmonary fibrosis) in mice, intraperitoneal injection
# Format: in vivo
# Measurement Context: 5 mg/kg i.p. once a day for 10 days; autopsy after 5 weeks; score 0-6 points

I would be grateful if you could share the reported Grade: total score of pulmonary fibrosis/total number of test animal for Cc1c(N)nc(C(CC(N)=O)NCC(N)C(N)=O)nc1C(=O)NC(C(=O)NC(C)C(O)C(C)C(=O)NC(C(=O)NCCc1nc(-c2nc(C(=O)NCCCN(C)CCCNCc3ccc(OCc4ccccc4)c(OCc4ccccc4)c3)cs2)cs1)C(C)O)C(OC1OC(CO)C(O)C(O)C1OC1OC(CO)C(O)C(OC(N)=O)C1O)c1cnc[nH]1 (centres unmarked) .
1/27

Could you now consider this next molecule?
I would be grateful if you could share the reported Grade: total score of pulmonary fibrosis/total number of test animal for Cc1c(N)nc(C(CC(N)=O)NCC(N)C(N)=O)nc1C(=O)NC(C(=O)NC(C)C(O)C(C)C(=O)NC(C(=O)NCCc1nc(-c2nc(C(=O)NCCCN(C)CCCNCC3CCCCCCCCCC3)cs2)cs1)C(C)O)C(OC1OC(CO)C(O)C(O)C1OC1OC(CO)C(O)C(OC(N)=O)C1O)c1cnc[nH]1 (centres unmarked) .
0/27
